# Tested on: HPV-16
# test description: qPCR sensitivity against HPV-HNSCC tumor samples diluted among 10 ng normal human DNA
# settings: Sample # 5
observed property: Threshold of tumor cell numbers for HPV-16 detection (tumor cells)

molecule	endpoint value
E6: previously designed (historical) HPV-16 E6 primers and Taqman probe, SEQ ID NO: 7-9, positive control (nucleic acid, Taqman probe, labels not given here) DNA 1: TCAGGACCCACAGGAGCG DNA 2: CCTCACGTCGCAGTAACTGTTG DNA 3: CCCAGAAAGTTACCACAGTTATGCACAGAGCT	30.0
BR E1-4: HPV-16 E1 region primer/probe set, SEQ ID NO: 37-39 (nucleic acid, chemistry not given here) DNA 1: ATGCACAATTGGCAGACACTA DNA 2: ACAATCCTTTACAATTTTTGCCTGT DNA 3: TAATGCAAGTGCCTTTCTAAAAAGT	30.0
E7: previously designed (historical) HPV-16 E7 primers and Taqman probe, SEQ ID NO: 10-12; part of CLIA test (nucleic acid, Taqman probe, labels not given here, part of CLIA test) DNA 1: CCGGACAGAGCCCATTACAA DNA 2: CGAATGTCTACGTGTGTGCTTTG DNA 3: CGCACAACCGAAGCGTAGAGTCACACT	6.0
BR E1-5: HPV-16 E1 region primer/probe set, SEQ ID NO: 40-42 (same as SEQ ID NO: 1-3) (nucleic acid, chemistry not given here) DNA 1: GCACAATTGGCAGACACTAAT DNA 2: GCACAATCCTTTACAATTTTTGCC DNA 3: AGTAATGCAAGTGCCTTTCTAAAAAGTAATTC	6.0
BR E1-6: HPV-16 E1 region primer/probe set, SEQ ID NO: 43-45 (nucleic acid, chemistry not given here) DNA 1: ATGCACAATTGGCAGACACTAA DNA 2: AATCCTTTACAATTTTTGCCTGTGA DNA 3: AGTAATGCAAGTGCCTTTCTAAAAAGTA	30.0
HR E5L2-4: primer/probe set for junction between E5 and L2, SEQ ID NO: 55-57 (same as SEQ ID NO: 4-6) (nucleic acid, chemistry not given here) DNA 1: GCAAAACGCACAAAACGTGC DNA 2: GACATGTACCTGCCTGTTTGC DNA 3: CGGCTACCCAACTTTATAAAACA	150.0
BR E6-1: HPV-16 E6 region (172-373 bp) primer/probe set, SEQ ID NO: 58-60 (nucleic acid, chemistry not given here) DNA 1: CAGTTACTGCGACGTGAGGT DNA 2: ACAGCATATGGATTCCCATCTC DNA 3: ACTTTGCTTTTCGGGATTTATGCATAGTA	30.0
